B1: Ankyrin-1, residues 1405 to 1484; numbered along this chain, P16157 (parent)
chain: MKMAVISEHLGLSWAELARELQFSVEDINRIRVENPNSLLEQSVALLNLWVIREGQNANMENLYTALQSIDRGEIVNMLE

- Variants of: B1
- assayComment: abundance fitness (aPCA) (normalised: wild type 0, dead -1); higher = more abundant; growth selection in yeast, the domain comes from the species named
- recordedConditions: Homo sapiens
Listed below: abundance fitness values for each entry.
propertyLabel: abundance fitness

>>> result("L39M")
-0.075
>>> result("N57E")
0.163
>>> result("E80N")
-0.045
>>> result("R32V")
-0.041
>>> result("L79T")
-0.202
>>> result("V44M")
0.142
>>> result("L79I")
-0.019
>>> result("L63R")
-0.95
>>> result("L40V")
0.011
>>> result("N62L")
-0.037
>>> result("V44W")
-0.021
>>> result("N37R")
-0.186
>>> result("Q56V")
0.07
>>> result("A66T")
-0.794
>>> result("S24M")
-0.487
>>> result("V33A")
0.096
>>> result("V33H")
-0.043
>>> result("S69F")
-0.341
>>> result("L67P")
-0.858
>>> result("L63W")
-0.693
>>> result("D27R")
-0.46
>>> result("D27E")
-0.08
>>> result("L79P")
-0.3
>>> result("F23H")
-0.829
>>> result("N48A")
-0.415
>>> result("R53S")
-0.591
>>> result("I75Y")
-0.692
>>> result("V44P")
-0.911
>>> result("R72T")
-0.797
>>> result("S38L")
-0.781
>>> result("L67I")
-0.156

These data points were gathered from the Human Domainome abundance scans (Beltran et al. 2025).
